- PROTOCOL_DESCRIPTION: Plasma pharmacokinetics of CR665 after single IV infusion in human subjects
- CONDITION_DESCRIPTION: male, human, plasma, iv, 0.24 mg/kg, MRTint, males, 1 hour IV infusion, geometric mean
Counter-ions that a name gives are not always drawn. Non-standard residues stand in square brackets, D forms with d. Residues, ends and D or L forms follow the SMILES beside them. *: point of attachment. NH(4-picolyl) = c1cc(CN*)ccn1; dNle = CCCC[C@@H](N)C(=O)O

COMPOUND	MRT [min]
CCCC[C@@H](NC(=O)[C@@H](Cc1ccccc1)NC(=O)[C@H](N)Cc1ccccc1)C(=O)N[C@H](CCCNC(=N)N)C(=O)NCc1ccncc1 [CR665, acetate salt] (H-[dF][dF][dNle][dR]-{NH(4-picolyl)})	36.8

---

- PROTOCOL_DESCRIPTION: Plasma pharmacokinetics of CR665 after single IV infusion in human subjects
- CONDITION_DESCRIPTION: male, human, plasma, iv, 0.24 mg/kg, Cmax, males, 1 hour IV infusion, geometric mean
Counter-ions that a name gives are not always drawn. Non-standard residues stand in square brackets, D forms with d. Residues, ends and D or L forms follow the SMILES beside them. *: point of attachment. NH(4-picolyl) = c1cc(CN*)ccn1; dNle = CCCC[C@@H](N)C(=O)O
MEASUREMENT_LABEL: Cmax (ng/mL)

MOLECULE	MEASUREMENT_LABEL	RECORDED_NUMBER
CCCC[C@@H](NC(=O)[C@@H](Cc1ccccc1)NC(=O)[C@H](N)Cc1ccccc1)C(=O)N[C@H](CCCNC(=N)N)C(=O)NCc1ccncc1 [CR665, acetate salt] (H-[dF][dF][dNle][dR]-{NH(4-picolyl)})	Cmax	431

---

- PROTOCOL_DESCRIPTION: Plasma pharmacokinetics of CR665 after single IV infusion in human subjects
- CONDITION_DESCRIPTION: male, human, plasma, iv, 0.48 mg/kg, tmax, males, 1 hour IV infusion, median
Structures can show the parent of a compound that is named as a salt. Non-standard residues stand in square brackets, D forms with d. Residues, ends and D or L forms follow the SMILES beside them. *: point of attachment. NH(4-picolyl) = c1cc(CN*)ccn1; dNle = CCCC[C@@H](N)C(=O)O
MEASUREMENT_LABEL: Tmax (min)

MOLECULE	UNIT_ANNOTATION	RECORDED_NUMBER
CCCC[C@@H](NC(=O)[C@@H](Cc1ccccc1)NC(=O)[C@H](N)Cc1ccccc1)C(=O)N[C@H](CCCNC(=N)N)C(=O)NCc1ccncc1 [CR665, acetate salt] (H-[dF][dF][dNle][dR]-{NH(4-picolyl)})	min	52.5

---

- PROTOCOL_DESCRIPTION: Plasma pharmacokinetics of CR665 after single IV infusion in human subjects
- CONDITION_DESCRIPTION: female, human, plasma, intravenous, 0.24 mg/kg, CL, geometric least squares mean, females, 1-hour infusion
Where a name gives a salt, the structure may show the parent alone. Non-standard residues stand in square brackets, D forms with d. Residues, ends and D or L forms follow the SMILES beside them. *: point of attachment. NH(4-picolyl) = c1cc(CN*)ccn1; dNle = CCCC[C@@H](N)C(=O)O
MEASUREMENT_LABEL: clearance (mL/min)

MOLECULE	RECORDED_NUMBER
CCCC[C@@H](NC(=O)[C@@H](Cc1ccccc1)NC(=O)[C@H](N)Cc1ccccc1)C(=O)N[C@H](CCCNC(=N)N)C(=O)NCc1ccncc1 [CR665, acetate salt] (H-[dF][dF][dNle][dR]-{NH(4-picolyl)})	573

---

- PROTOCOL_DESCRIPTION: Plasma pharmacokinetics of CR665 after single IV infusion in human subjects
- CONDITION_DESCRIPTION: male, human, plasma, intravenous, Mean apparent elimination half life, males, 0.015 to 0.06 mg/kg, 1 hour infusion
Where a name gives a salt, the structure may show the parent alone. Non-standard residues stand in square brackets, D forms with d. Residues, ends and D or L forms follow the SMILES beside them. *: point of attachment. NH(4-picolyl) = c1cc(CN*)ccn1; dNle = CCCC[C@@H](N)C(=O)O

MOLECULE	half-life
CCCC[C@@H](NC(=O)[C@@H](Cc1ccccc1)NC(=O)[C@H](N)Cc1ccccc1)C(=O)N[C@H](CCCNC(=N)N)C(=O)NCc1ccncc1 [CR665, acetate salt] (H-[dF][dF][dNle][dR]-{NH(4-picolyl)})	~42 min

---

- PROTOCOL_DESCRIPTION: Plasma pharmacokinetics of CR665 after single IV infusion in human subjects
- CONDITION_DESCRIPTION: male, human, plasma, iv, 0.03 mg/kg, AUC0-∞, males, 5-minute IV infusion, geometric mean
Structures can show the parent of a compound that is named as a salt. Non-standard residues stand in square brackets, D forms with d. Residues, ends and D or L forms follow the SMILES beside them. *: point of attachment. NH(4-picolyl) = c1cc(CN*)ccn1; dNle = CCCC[C@@H](N)C(=O)O
MEASUREMENT_LABEL: AUC(0-inf) (ng·h/mL)

COMPOUND	RECORDED_NUMBER
CCCC[C@@H](NC(=O)[C@@H](Cc1ccccc1)NC(=O)[C@H](N)Cc1ccccc1)C(=O)N[C@H](CCCNC(=N)N)C(=O)NCc1ccncc1 [CR665, acetate salt] (H-[dF][dF][dNle][dR]-{NH(4-picolyl)})	68.4

---

- PROTOCOL_DESCRIPTION: Plasma pharmacokinetics of CR665 after single IV infusion in human subjects
- CONDITION_DESCRIPTION: male, human, plasma, iv, 0.12 mg/kg, CL, males, 1 hour IV infusion, geometric mean
Where a name gives a salt, the structure may show the parent alone. Non-standard residues stand in square brackets, D forms with d. Residues, ends and D or L forms follow the SMILES beside them. *: point of attachment. NH(4-picolyl) = c1cc(CN*)ccn1; dNle = CCCC[C@@H](N)C(=O)O

COMPOUND	clearance (mL/min)
CCCC[C@@H](NC(=O)[C@@H](Cc1ccccc1)NC(=O)[C@H](N)Cc1ccccc1)C(=O)N[C@H](CCCNC(=N)N)C(=O)NCc1ccncc1 [CR665, acetate salt] (H-[dF][dF][dNle][dR]-{NH(4-picolyl)})	533

---

- PROTOCOL_DESCRIPTION: Plasma pharmacokinetics of CR665 after single IV infusion in human subjects
- CONDITION_DESCRIPTION: male, human, plasma, iv, 0.36 mg/kg, AUC0-t, males, 1 hour IV infusion, geometric mean
Where a name gives a salt, the structure may show the parent alone. Non-standard residues stand in square brackets, D forms with d. Residues, ends and D or L forms follow the SMILES beside them. *: point of attachment. NH(4-picolyl) = c1cc(CN*)ccn1; dNle = CCCC[C@@H](N)C(=O)O
MEASUREMENT_LABEL: AUC(0-t) (µg·h/mL)

COMPOUND	MEASUREMENT_LABEL	RECORDED_NUMBER
CCCC[C@@H](NC(=O)[C@@H](Cc1ccccc1)NC(=O)[C@H](N)Cc1ccccc1)C(=O)N[C@H](CCCNC(=N)N)C(=O)NCc1ccncc1 [CR665, acetate salt] (H-[dF][dF][dNle][dR]-{NH(4-picolyl)})	AUC(0-t)	0.808

---

- PROTOCOL_DESCRIPTION: Plasma pharmacokinetics of CR665 after single IV infusion in human subjects
- CONDITION_DESCRIPTION: both, human, plasma, intravenous, 0.24 mg/kg, Mean terminal elimination half-life, male and female subjects, 1-hour infusion
Where a name gives a salt, the structure may show the parent alone. Non-standard residues stand in square brackets, D forms with d. Residues, ends and D or L forms follow the SMILES beside them. *: point of attachment. NH(4-picolyl) = c1cc(CN*)ccn1; dNle = CCCC[C@@H](N)C(=O)O

COMPOUND	half-life
CCCC[C@@H](NC(=O)[C@@H](Cc1ccccc1)NC(=O)[C@H](N)Cc1ccccc1)C(=O)N[C@H](CCCNC(=N)N)C(=O)NCc1ccncc1 [CR665, acetate salt] (H-[dF][dF][dNle][dR]-{NH(4-picolyl)})	1.2 to 1.4 h

---

- PROTOCOL_DESCRIPTION: Plasma pharmacokinetics of CR665 after single IV infusion in human subjects
- CONDITION_DESCRIPTION: male, human, plasma, iv, 0.42 mg/kg, AUC0-t, males, 1 hour IV infusion, geometric mean
Counter-ions that a name gives are not always drawn. Non-standard residues stand in square brackets, D forms with d. Residues, ends and D or L forms follow the SMILES beside them. *: point of attachment. NH(4-picolyl) = c1cc(CN*)ccn1; dNle = CCCC[C@@H](N)C(=O)O
MEASUREMENT_LABEL: AUC(0-t) (ng·h/mL)

MOLECULE	MEASUREMENT_LABEL	RECORDED_NUMBER
CCCC[C@@H](NC(=O)[C@@H](Cc1ccccc1)NC(=O)[C@H](N)Cc1ccccc1)C(=O)N[C@H](CCCNC(=N)N)C(=O)NCc1ccncc1 [CR665, acetate salt] (H-[dF][dF][dNle][dR]-{NH(4-picolyl)})	AUC(0-t)	1080
